Molecular target: T1, recombinant human PSMA (R&D, cat. no. 4234-ZN) (human, UniProt Q04609 44-750)
T1 construct: Bought protein; also called rhPSMA; Recombinant PMSA
T1 sequence (Q04609 44-750 limits assumed): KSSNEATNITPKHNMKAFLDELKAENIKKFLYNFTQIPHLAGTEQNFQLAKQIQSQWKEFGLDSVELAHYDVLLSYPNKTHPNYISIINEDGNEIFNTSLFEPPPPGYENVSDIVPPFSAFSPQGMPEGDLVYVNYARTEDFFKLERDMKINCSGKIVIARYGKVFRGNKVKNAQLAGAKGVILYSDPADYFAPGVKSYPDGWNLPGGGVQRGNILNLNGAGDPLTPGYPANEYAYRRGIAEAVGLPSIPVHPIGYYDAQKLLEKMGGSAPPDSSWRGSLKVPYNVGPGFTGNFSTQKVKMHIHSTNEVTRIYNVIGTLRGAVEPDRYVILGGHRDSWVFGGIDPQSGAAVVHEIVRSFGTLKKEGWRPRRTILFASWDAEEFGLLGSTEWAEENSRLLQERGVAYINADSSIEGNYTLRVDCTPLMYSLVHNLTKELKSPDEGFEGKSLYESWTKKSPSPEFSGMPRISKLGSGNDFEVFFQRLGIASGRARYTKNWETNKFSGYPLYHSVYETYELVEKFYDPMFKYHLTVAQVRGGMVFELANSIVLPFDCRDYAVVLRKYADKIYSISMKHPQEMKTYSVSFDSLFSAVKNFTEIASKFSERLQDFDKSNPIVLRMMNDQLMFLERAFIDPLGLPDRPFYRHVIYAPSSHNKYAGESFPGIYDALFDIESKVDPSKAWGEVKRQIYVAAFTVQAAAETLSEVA
Test: Octet RED384 BLI, PSMA on sensor, VH series from 0.375 ug/ml
Parameter: pKd
Note: pKd values are expressed as the negative base-10 logarithm of concentration in M.

single VH domain antibody 2.13 (VHH, Human single VH domain antibody (Humabody); C-terminal His tag, residues not tied) VHH: EVQLVESGGGVVQPGRSLRLSCAASGFSFSGYGLHWVRQAPGKGLEWVAYISYDASNKYYADNVKGRFTISRDNSKNTLYLQMNSLRAEDTAVYYCAKDPAWGLRLGESSSYDFDIWGQGTMVTVSS	9.00
single VH domain antibody 2.12 (VHH, Human single VH domain antibody (Humabody); C-terminal His tag, residues not tied) VHH: EVQLVESGGGVVQPGRSLRLSCAASGFSFSGYGMHWVRQAPGKGLEWVAYISYDKSNKYYADKVKGRFTISRDNSKNTLYLQMNSLRAEDTAVYYCAKDPAWGLRLGESSSYDFDIWGQGTMVTVSS	8.81

Inquiry: Recorded pKd for single VH domain antibody 2.17 (VHH, Human single VH domain antibody (Humabody); C-terminal His tag, residues not tied) VHH: EVQLVESGGGVVQPGRSLRLSCAASGFSFSGYGMHWVRQAPGKGLEWVAYISYDASNKYYADNVKGRFTISRDNSKNTLYLQMNSLRAEDTAVYYCAKDPAWGLRLGESSSYDFDIWGQGTMVTVSS , please?
Reply text: 9.12
